Hey, just so you know, these numbers are from PubChem BioAssay (NCI).

# System: HOP-62 NSCLC
# assay.procedure: NCI tumour cell line growth inhibition, 48 h
Overview of reported TGI across a group of compounds:

These solved cases illustrate the format of a correct answer.
[
  {
    "compound": "CNC(=O)c1cc2c(Oc3ccc(NC(=O)C4(C(=O)Nc5ccc(F)cc5)CC4)cc3)ccnc2cc1OC",
    "reported.endpoint": "TGI",
    "experimental.value": "> 100 µM"
  },
  {
    "compound": "CC(C)COP(=O)(OCC(C)C)C(NS(=O)(=O)c1ccccc1)(C(F)(F)F)C(F)(F)F",
    "reported.endpoint": "TGI",
    "experimental.value": "35.1 µM"
  },
  {
    "compound": "CCOC1Oc2ccccc2-c2oc(=O)c(Sc3ccc(C)cc3)cc21 (stereo not given)",
    "reported.endpoint": "TGI",
    "experimental.value": "> 100 µM"
  },
  {
    "compound": "NNC(=O)c1ccc[n+](CCc2ccccc2)c1",
    "reported.endpoint": "TGI",
    "experimental.value": "> 100 µM"
  }
]

Query :: Reported TGI, compound CC1=C2C(=O)c3ccccc3C2=C(C)S(=O)(=O)O1 : ____
Result :: > 10 µM

Query :: What do you have for COc1cccc(/C=C2\CCC(C)(CN(C)C)C2=O)c1 (stereo not given) ?
Result :: > 100 µM

* * *

Overview of reported TGI across a group of compounds:
# Test system: A549 NSCLC
# assay.procedure: NCI tumour cell line growth inhibition, 48 h

[
  {
    "compound": "Cc1cc(Nc2nc(SCc3ccc(C(=O)Nc4ccc(F)cc4N)cc3)nn3cccc23)n[nH]1",
    "reported.endpoint": "TGI",
    "experimental.value": "36.8 µM"
  }
]

Query :: Reported TGI, compound COc1ccc2nc3cc(Cl)ccc3c(NCCCNCCCNc3c4ccc(Cl)cc4nc4ccc(OC)cc34)c2c1 : ____
Result :: 0.165 µM

Query :: What do you have for NC(=O)c1cccc(Nc2nccc(Nc3cccc(F)c3)n2)c1 ?
Result :: > 25 µM

Query :: What do you have for Cn1c(/C(C#N)=C/c2ccc3ccccc3c2)cc2ccccc21 ?
Result :: > 100 µM

Query :: What do you have for Cc1cc(=O)c2c([nH]1)NS(=O)(=O)NC2=O ?
Result :: > 100 µM

Query :: What do you have for O=[N+]([O-])/C(C(Cl)=C(Cl)Cl)=C(\Nc1cccc2cccnc12)SCc1ccccc1 ?
Result :: 88.4 µM

Query :: What do you have for CCN(C(=S)N[C@@H](Cc1ccccc1)C(=O)N[C@@H](CC(C)C)C(=O)OC)c1ccccc1 ?
Result :: > 100 µM

* * *

# Tested on: MDA-MB-435
Response enum: active, inactive

Before answering, review these 5 worked examples.
[
  {
    "compound": "O=C1c2cccnc2-c2nc(-c3ccncc3)cc3c2c1nc1ccccc13",
    "group": "inactive"
  },
  {
    "compound": "COc1cc2c(cc1-c1c(C)noc1C)cc(C)c(=O)n2Cc1ccccn1",
    "group": "inactive"
  },
  {
    "compound": "CCCCCCCCCCN=C(c1ccc(N(C)C)cc1)c1ccc(N(C)C)cc1",
    "group": "active"
  },
  {
    "compound": "CNC(=O)c1cc2c(Oc3ccc(NC(=O)C4(C(=O)Nc5ccc(F)cc5)CC4)cc3)ccnc2cc1OC",
    "group": "inactive"
  },
  {
    "compound": "O=c1c2c3c(sc2n2c(-c4cc(-c5ccccc5)nn4-c4ccccc4)nnc2n1Cc1ccccc1)CCCC3",
    "group": "inactive"
  }
]

Query :: Could you check what this test reported for c1ccc2nc3c(cc4ccccn43)nc2c1 ?
Result :: inactive

Query :: What do you have for COc1ccc(-c2nnc(N3CCN(C(=O)CN4CCN(c5ccc(OC)cc5)CC4)CC3)nc2-c2ccc(OC)cc2)cc1 ?
Result :: inactive

Query :: What do you have for C=C1CC2(OC1=O)C(=O)N(CCCN1C(=O)C3(CC(=C)C(=O)O3)c3ccccc31)c1ccccc12 (centres undefined) ?
Result :: inactive

Query :: What do you have for O=C(/C=C/c1ccccc1)CC(c1ccccc1)N1CCOCC1 (centres undefined) ?
Result :: inactive

* * *

# System: MDA-MB-435
Response enum: 1 for active, 0 for inactive

Before answering, review these 5 worked examples.
[
  {
    "compound.structure.string": "CC1(C)N=C(N)N=C(N)N1c1ccc(OCC(=O)Nc2ccccc2)c(Cl)c1",
    "tested.system": "MDA-MB-435",
    "group": 0
  },
  {
    "compound.structure.string": "CN(C)Cc1c[nH]c2c(NCCN)c3c(c(NCCN)c12)C(=O)c1ccccc1C3=O",
    "tested.system": "MDA-MB-435",
    "group": 0
  },
  {
    "compound.structure.string": "COCCOCCOCc1n(Cc2ccc3ccccc3n2)c2ccccc2[n+]1Cc1ccc2ccccc2c1",
    "tested.system": "MDA-MB-435",
    "group": 1
  },
  {
    "compound.structure.string": "O=C(c1ccc2ccccc2c1)c1c(C(F)(F)F)n([O-])c2ccc(Cl)cc2[n+]1=O",
    "tested.system": "MDA-MB-435",
    "group": 0
  },
  {
    "compound.structure.string": "O=S(=O)(CCOCc1ccc(-c2ccc3ncnc(Nc4ccc(OCc5cccc(F)c5)c(Cl)c4)c3c2)o1)c1ccccc1",
    "tested.system": "MDA-MB-435",
    "group": 0
  }
]

Query :: Could you check what this test reported for CCN(CC)CCNC(=O)c1cn2ncnc(Oc3ccc(NC(=O)Nc4ccc(Cl)c(C(F)(F)F)c4)c(F)c3)c2c1C ?
Result :: 0

* * *

# Tested on: SK-MEL-2 melanoma
# assay.procedure: NCI tumour cell line growth inhibition, 48 h
Overview of reported GI50 across a group of molecules:

These solved cases illustrate the format of a correct answer.
[
  {
    "molecule": "CC(=O)[CH-]C(C)=O.[CH2-]C.[CH2-]C.[Tl+3]",
    "GI50": "> 100 µM"
  },
  {
    "molecule": "CCCCCCCCCCCCCCCCCCNC(=O)[C@H]1CSC(c2cccs2)N1 (stereo partly specified)",
    "GI50": "0.957 µM"
  },
  {
    "molecule": "O=S(=O)(CCOCc1ccc(-c2ccc3ncnc(Nc4ccc(OCc5cccc(F)c5)c(Cl)c4)c3c2)o1)c1ccccc1",
    "GI50": "> 25 µM"
  },
  {
    "molecule": "CC1CCCc2c1nn(C(=O)/C=C(\\N)c1ccccc1)c2N (stereo unspecified)",
    "GI50": "34.8 µM"
  },
  {
    "molecule": "Cn1c2ccccc2c2c(=O)c3ccccc3[nH]c21",
    "GI50": "> 100 µM"
  }
]

In the following, a different molecule is considered.
Query :: Reported GI50, molecule O=C1C(Cl)=C(Nc2ccccc2)C(=O)c2ccccc21 : ____
Result :: 1.87 µM

* * *

# Test system: 786-0 renal
# assay.procedure: NCI tumour cell line growth inhibition, 48 h
Overview of reported TGI across a group of compounds:

These solved cases illustrate the format of a correct answer.
[
  {
    "compound": "CCOC(=O)/C(=C/c1cccc(OC)c1)N(CC)CC",
    "TGI": "> 100 µM"
  },
  {
    "compound": "C=CCOC(=O)CC[N+]1=CCC(c2ccccc2)(c2ccccc2)O1",
    "TGI": "> 100 µM"
  }
]

Query :: # get_value(readout= TGI, system= 786-0 renal) for CC1CC[C@@]2(OC1)OC1C[C@H]3[C@@H]4CC[C@H]5CC(OC6OC(CO)C(OC7OC(CO)C(O)C(O)C7OC7OC(CO)C(O)C(O)C7O)C(O)C6O)CCC5(C)[C@H]4CCC3(C)C1[C@@H]2C (some centres undefined)
Result :: 5.44 µM

Query :: What do you have for Cn1cc(-c2csc(-c3cn(C)c4ccccc34)n2)c2cnccc21 ?
Result :: 3.53 µM

Query :: What do you have for O=[N+]([O-])/C(C(Cl)=C(Cl)Cl)=C(\Nc1cccc2cccnc12)SCc1ccccc1 ?
Result :: 47.3 µM

Query :: What do you have for O=S1(=O)NCCCN1CCNc1nccc(-c2c(-c3cccc(O)c3)nc3sccn23)n1 ?
Result :: > 100 µM

Query :: What do you have for N=S(c1ccccc1)c1ccccc1[N+](=O)[O-] (centres undefined) ?
Result :: 30.3 µM

* * *

# Test system: PC-3 prostate
# assay.procedure: NCI tumour cell line growth inhibition, 48 h
Overview of reported TGI across a group of compounds:

[
  {
    "compound": "CCCCCCCCCCCC[n+]1ccccc1 (tested in a mixture with another compound)",
    "TGI": "0.937 µM"
  },
  {
    "compound": "Cn1c(/C(C#N)=C/c2ccc3ccccc3c2)cc2ccccc21",
    "TGI": "> 100 µM"
  },
  {
    "compound": "C=C1CC2(OC1=O)C(=O)N(CCCN1C(=O)C3(CC(=C)C(=O)O3)c3ccccc31)c1ccccc12 (stereo unspecified)",
    "TGI": "10.3 µM"
  },
  {
    "compound": "COc1cc2c(cc1-c1c(C)noc1C)cc(C)c(=O)n2Cc1ccccn1",
    "TGI": "> 100 µM"
  },
  {
    "compound": "O=C1CN2C(c3ccccc3)=NN(c3ccc([N+](=O)[O-])cc3)C2(c2ccccc2)c2cc(Cl)ccc2N1CC1CC1 (stereo unspecified)",
    "TGI": "> 100 µM"
  }
]

Query :: Reported TGI, compound Cc1ncc(C(=O)Nc2ccc(CN3CCN(C)CC3)c(C(F)(F)F)c2)cc1C#Cc1cnc(NC2CC2)c2ncccc12 : ____
Result :: 1.17 µM

Query :: What do you have for COc1ccc(-c2nnc(N3CCN(C(=O)CN4CCN(c5ccc(OC)cc5)CC4)CC3)nc2-c2ccc(OC)cc2)cc1 ?
Result :: 26.9 µM

Query :: What do you have for CCCCC1c2c([nH]c3ccccc23)C2C(=O)N(c3ccc(OC)cc3)C(=O)C2C1CCC (stereo unspecified) ?
Result :: 7.46 µM

Query :: What do you have for Cc1cc2c(Br)cc(Br)c(O)c2nc1C(=O)c1ccccc1 ?
Result :: > 100 µM

Query :: What do you have for CC1(C)[C@@H]2CC[C@@]1(C)[C@@H]1O[C@@H](O[C@@H](CN)c3cc(Cl)c(OCc4ccccc4)c(OCc4ccccc4)c3)C[C@H]21 ?
Result :: 0.292 µM

Query :: What do you have for CCCCCCCCCCCCCCCCCCNC(=O)[C@H]1CSC(c2cccs2)N1 (stereo partly specified) ?
Result :: > 50 µM
